Cited source for all entries: patent US7189720B2

Target: human Y1 receptor (Homo sapiens, UniProt P25929)
Construct: expressed in transfected cells; host or cells: human embryonic kidney 293 cells, e.g. 293-hY1-5 (ATCC CRL-12121)
Sequence (P25929 whole entry): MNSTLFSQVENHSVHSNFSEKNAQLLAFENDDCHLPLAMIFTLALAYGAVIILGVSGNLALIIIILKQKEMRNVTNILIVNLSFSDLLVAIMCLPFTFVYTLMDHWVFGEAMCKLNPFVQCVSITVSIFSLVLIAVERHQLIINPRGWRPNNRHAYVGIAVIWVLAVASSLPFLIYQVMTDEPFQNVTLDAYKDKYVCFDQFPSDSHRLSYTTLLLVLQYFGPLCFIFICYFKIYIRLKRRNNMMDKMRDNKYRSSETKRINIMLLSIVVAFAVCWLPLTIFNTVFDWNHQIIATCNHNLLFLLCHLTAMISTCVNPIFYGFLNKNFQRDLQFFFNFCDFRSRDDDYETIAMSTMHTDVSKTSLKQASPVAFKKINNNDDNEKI
Experiment: Radioligand binding to membranes, cloned human Y1 receptor
Settings: text b745; read-out: Ki (nM) NPY (Y1)
readout name: Ki

q: // returns reported Ki for input CC(C)Nc1nc(Cl)nc(NCC2CCC(CNS(=O)(=O)c3cccc4ccccc34)CC2)n1 (stereo not shown)
a: > 100000 nM

----------
Some compounds, each annotated with its measured Ki.
Target: human Y5 receptor (Homo sapiens, UniProt Q15761)
Construct: expressed in transfected cells; host or cells: mouse fibroblast LM(tk-) cells, e.g. L-hY5-7 (ATCC CRL-11995)
Sequence (Q15761 1-445): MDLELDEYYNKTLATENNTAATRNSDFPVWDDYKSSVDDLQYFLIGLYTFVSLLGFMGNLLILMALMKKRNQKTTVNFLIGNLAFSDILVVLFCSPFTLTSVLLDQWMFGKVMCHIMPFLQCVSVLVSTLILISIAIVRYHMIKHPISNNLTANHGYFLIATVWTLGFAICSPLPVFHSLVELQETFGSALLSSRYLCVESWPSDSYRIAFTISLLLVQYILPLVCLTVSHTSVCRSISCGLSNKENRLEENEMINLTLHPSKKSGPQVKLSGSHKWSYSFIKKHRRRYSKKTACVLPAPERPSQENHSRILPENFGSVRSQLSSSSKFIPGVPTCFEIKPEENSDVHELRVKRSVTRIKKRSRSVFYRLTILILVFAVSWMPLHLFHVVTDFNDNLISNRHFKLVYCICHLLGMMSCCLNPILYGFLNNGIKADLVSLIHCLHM
Assay: Radioligand binding to membranes, cloned human Y5 receptor
Conditions: Table 3; read-out: Ki (nM) hNPY-5
State the answer as a number, implicitly in nM.

{"compound": "CC(C)Nc1nc(NCC2CCC(CNS(=O)(=O)N3CCOCC3)CC2)nc(N2CCOCC2)n1 (stereo not drawn) [Example 44]", "units text": "nM", "observed value": 295}
{"compound": "O=S(=O)(NCC1CCC(CNc2nc(NC3CC3)nc(N3CCCC3)n2)CC1)c1ccc(F)cc1 (stereo not drawn) [Example 52]", "units text": "nM", "observed value": 101}
{"compound": "CC(C)Nc1nc(NCC2CCC(CNS(=O)(=O)N3CCCC3)CC2)nc(N2CCCC2)n1 (stereo not drawn) [Example 43]", "units text": "nM", "observed value": 43}

q: Short answer please: Ki, human Y5 receptor (Homo sapiens, UniProt Q15761), entry CC(C)(C)c1ccc(S(=O)(=O)NCC2CCC(CNc3nc(N4CCCC4)nc(N4CCCC4)n3)CC2)cc1 (stereo not drawn) [Example 46]
a: 68

q: Queued: CN(C)S(=O)(=O)NCC1CCC(CNc2nc(N3CCOCC3)nc(N3CCOCC3)n2)CC1 (stereo not drawn) [Example 50]
a: 3510

q: Queued: CC(C)Nc1nc(NCC2CCC(CNS(=O)(=O)NC3CC3)CC2)nc(NC2CC2)n1 (stereo not drawn) [Example 47]
a: 359

q: Queued: CC(C)Nc1nc(NCC2CCC(CNS(=O)(=O)N3CCCCC3)CC2)nc(N2CCCCC2)n1 (stereo not drawn) [Example 45]
a: 59

q: Queued: CC(C)Nc1nc(Cl)nc(NCC2CCC(CNS(=O)(=O)c3cccc4ccccc34)CC2)n1 (stereo not drawn) [Example 49]
a: 138
